measured_on: Cynomolgus Factor P (cynomolgus)
protocol_description: cell-based or functional assay

[
  {
    "binder": "NVS806 (Fab, V domains shown) VH: EVQLVQSGAEVKKPGSSVKVSCKASGGTFSSYAISWVRQAPGQGLEWMGRIIPIFGTANYAQKFQGRVTITADESTSTAYMELSSLRSEDTAVYYCARHGGYVFDSWGQGTLVTVSS VL: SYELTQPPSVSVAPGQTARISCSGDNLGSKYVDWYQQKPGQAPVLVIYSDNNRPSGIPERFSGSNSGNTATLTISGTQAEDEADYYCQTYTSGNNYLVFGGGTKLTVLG",
    "Hemolytic assay IC50 (nM), 10% serum": 13.9
  },
  {
    "binder": "NVS805 (Fab, V domains shown) VH: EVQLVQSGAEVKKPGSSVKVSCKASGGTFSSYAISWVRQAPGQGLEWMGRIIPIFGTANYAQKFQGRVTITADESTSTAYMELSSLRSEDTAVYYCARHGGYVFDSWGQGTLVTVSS VL: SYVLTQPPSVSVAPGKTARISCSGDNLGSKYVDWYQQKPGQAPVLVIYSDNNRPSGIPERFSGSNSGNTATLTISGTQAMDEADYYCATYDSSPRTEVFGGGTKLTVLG",
    "Hemolytic assay IC50 (nM), 10% serum": 22.1
  },
  {
    "binder": "NVS962-G (Fab, V domains shown, NVS962 with heavy chain N30 replaced with glycine) VH: EVQLVQSGAEVKKPGSSVKVSCKASGGTFGSYAISWVRQAPGQGLEWMGRIIPIFGTANYAQKFQGRVTITADESTSTAYMELSSLRSEDTAVYYCARHGGYSFDSWGQGTLVTVSS VL: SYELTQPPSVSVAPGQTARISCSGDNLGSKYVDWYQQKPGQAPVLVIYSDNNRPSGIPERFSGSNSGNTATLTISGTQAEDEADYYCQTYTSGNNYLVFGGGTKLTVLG",
    "Hemolytic assay IC50 (nM), 10% serum": 14.2
  },
  {
    "binder": "NVS965-T (Fab, V domains shown, NVS965 with heavy chain N30 replaced with threonine) VH: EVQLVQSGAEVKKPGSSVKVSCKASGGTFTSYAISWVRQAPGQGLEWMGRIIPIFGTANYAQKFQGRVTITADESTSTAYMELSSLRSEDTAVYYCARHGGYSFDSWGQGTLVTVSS VL: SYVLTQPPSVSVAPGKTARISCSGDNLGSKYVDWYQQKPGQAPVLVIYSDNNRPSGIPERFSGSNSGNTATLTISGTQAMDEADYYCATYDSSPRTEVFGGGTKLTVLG",
    "Hemolytic assay IC50 (nM), 10% serum": 12.5
  }
]
